Property: pKd; scope: individual binders
Experimental System: P-selectin (PS-Rg) (Homo sapiens, UniProt P16109 P16109:42-321)
Sequence (P16109 42-321, one chain of several): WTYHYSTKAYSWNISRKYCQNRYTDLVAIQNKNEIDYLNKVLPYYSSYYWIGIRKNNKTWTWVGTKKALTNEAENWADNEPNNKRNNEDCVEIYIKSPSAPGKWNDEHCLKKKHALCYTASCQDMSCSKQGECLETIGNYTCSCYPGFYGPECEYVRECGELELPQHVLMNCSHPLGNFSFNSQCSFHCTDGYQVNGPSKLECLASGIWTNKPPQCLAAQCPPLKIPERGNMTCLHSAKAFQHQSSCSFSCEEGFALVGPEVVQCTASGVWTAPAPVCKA
Method: filter; 37 C
Conditions: tags: human IgG Fc fusion; chain copies: 2 (stated dimer)
The quantity pKd is defined as the negative base-10 logarithm of the molar concentration.

Lookup result for PA336 (ssRNA, 2'-NH2 C and U) RNA: GGGAGACAAGAAUAAACGCUCAAGAUCAUAACGAGAGGAGAGGGAGAACUACACGCGCGCGAGGAAAGAGUUCGACAGGAGGCUCACAACAGGC ; measured pKd: 7.82

Lookup result for PA320 (ssRNA, 2'-NH2 C and U) RNA: GGGAGACAAGAAUAAACGCUCAAGAGUAUCACACAAACCGGCACGGACUAAGCAGAAGGAGGUACGGAAGAUUCGACAGGAGGCUCACAACAGGC ; measured pKd: 8.35

Lookup result for PA463 (ssRNA, 2'-NH2 C and U) RNA: GGGAGACAAGAAUAAACGCUCAAGGGAAACGGAAAGGGACAAGGCGAACAGACGAGAAGUAGACGGAGUAGGAUUCGACAGGAGGCUCACAACAGGC ; measured pKd: 8.10

Lookup result for PA351 (ssRNA, 2'-NH2 C and U) RNA: GGGAGACAAGAAUAAACGCUCAAUGAUAGCACAGUGUAUAAGAAAACGCAACACCGCGCGCGGAAAGAGUUCGACAGGAGGCUCACAACAGGC ; measured pKd: 8.70

Where do these numbers come from? They come from patent US20030059769.
